meta.source: patent US20230263822A1

# Tested on: human Factor 11 mRNA
# TEST DETAILS: Antisense inhibition of human Factor 11 in HepG2 cells by microwalk gapmers, lipofectin, 75 nM (Example 3)
# Type: cell-based
# MEASUREMENT SETUP: HepG2 cells, lipofectin, gapmers targeted to nucleobases 1018 to 1042 of SEQ ID NO: 1
Strand notation (5' to 3'): a small letter for the sugar, then the base; units joined by * are phosphorothioate-linked, units joined directly phosphodiester-linked; [ ] holds rarer units or linkages, { } end groups; capitals alone tell only the bases. e = 2'-O-(2-methoxyethyl) (MOE); [5mC] = 5-methylcytosine; d = 2'-deoxy (DNA)
PROPERTY: % inhibition
Answer format: number, then unit.

IN: Can you look up the measured % inhibition of 416835 (antisense eA*e[5mC]*e[5mC]*eG*eG*dG*dA*dT*dG*dA*dT*dG*dA*dG*dT*eG*e[5mC]*eA*eG*eA) [compound 416835] for me?
OUT: 83%

IN: Can you look up the measured % inhibition of 416982 (antisense eA*e[5mC]*d[5mC]*dG*dG*dG*dA*dT*dG*dA*dT*dG*dA*dG*dT*eG*e[5mC]*eA*eG*eA) [compound 416982] for me?
OUT: 84%

IN: Can you look up the measured % inhibition of 416904 (antisense e[5mC]*e[5mC]*eG*dG*dG*dA*dT*dG*dA*dT*dG*dA*dG*dT*dG*d[5mC]*dA*eG*eA*eT) [compound 416904] for me?
OUT: 90%

IN: Can you look up the measured % inhibition of 416984 (antisense e[5mC]*eA*dA*d[5mC]*d[5mC]*dG*dG*dG*dA*dT*dG*dA*dT*dG*dA*eG*eT*eG*e[5mC]*eA) [compound 416984] for me?
OUT: 89%

====

# System: human Factor 11 mRNA
# TEST DETAILS: Dose-dependent inhibition of human Factor 11 in HepB3 cells, electroporation (Example 7)
# Assay type: cell-based
PROPERTY: log10 of IC50 (log10 of the value in nM)
Please be aware that the numbers have been log10-transformed from IC50 in nM.

IN: Can you look up the measured log10 of IC50 of 416925 (antisense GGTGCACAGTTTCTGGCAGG; 3-14-3 gapmer chemistry, further chemistry not given here) [compound 416925] for me?
OUT: 2.30

IN: Can you look up the measured log10 of IC50 of 417003 (antisense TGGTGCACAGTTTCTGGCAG; 2-13-5 gapmer chemistry, further chemistry not given here) [compound 417003] for me?
OUT: 3.18

IN: Can you look up the measured log10 of IC50 of 416858 (antisense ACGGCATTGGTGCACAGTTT; 5-10-5 gapmer, further chemistry not given here) [compound 416858] for me?
OUT: 2.48

IN: Can you look up the measured log10 of IC50 of 416826 (antisense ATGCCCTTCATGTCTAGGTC; 5-10-5 gapmer, further chemistry not given here) [compound 416826] for me?
OUT: 2.89

IN: Can you look up the measured log10 of IC50 of 416864 (antisense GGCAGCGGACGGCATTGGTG; 5-10-5 gapmer, further chemistry not given here) [compound 416864] for me?
OUT: 3.34

IN: Can you look up the measured log10 of IC50 of 416838 (antisense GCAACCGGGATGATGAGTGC; 5-10-5 gapmer, further chemistry not given here) [compound 416838] for me?
OUT: 3.08

IN: Can you look up the measured log10 of IC50 of 416850 (antisense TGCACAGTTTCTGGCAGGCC; 5-10-5 gapmer, further chemistry not given here) [compound 416850] for me?
OUT: 2.48

IN: Can you look up the measured log10 of IC50 of 416999 (antisense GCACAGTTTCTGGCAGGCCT; 2-13-5 gapmer chemistry, further chemistry not given here) [compound 416999] for me?
OUT: 2.20

====

# TEST DETAILS: Hematology assays in cynomolgus monkeys (Example 45)
# Assay type: in vivo
# MEASUREMENT SETUP: day 43; escalating dose regimen
PROPERTY: MCH (pg)
Quick reminder: number only, in pg, skip the unit.

IN: Can you look up the measured MCH of ISIS 416858: MOE gapmer, nucleobases 1275 to 1318 of SEQ ID NO: 1 (Table 8) (antisense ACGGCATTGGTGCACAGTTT; MOE gapmer, wing and gap sizes not given here) for me?
OUT: 23

IN: Can you look up the measured MCH of ISIS 416850: MOE gapmer, nucleobases 1275 to 1318 of SEQ ID NO: 1 (Table 8) (antisense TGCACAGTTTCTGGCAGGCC; MOE gapmer, wing and gap sizes not given here) for me?
OUT: 23

IN: Can you look up the measured MCH of ISIS 416864: MOE gapmer, nucleobases 1275 to 1318 of SEQ ID NO: 1 (Table 8) (antisense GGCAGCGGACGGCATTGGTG; MOE gapmer, wing and gap sizes not given here) for me?
OUT: 22

IN: Can you look up the measured MCH of ISIS 417002: MOE gapmer, nucleobases 1275 to 1318 of SEQ ID NO: 1 (Table 8) (antisense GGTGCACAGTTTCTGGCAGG; MOE gapmer, wing and gap sizes not given here) for me?
OUT: 23

IN: Can you look up the measured MCH of ISIS 416838: MOE gapmer, nucleobases 1018 to 1042 of SEQ ID NO: 1 (Table 6) (antisense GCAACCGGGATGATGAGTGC; MOE gapmer, wing and gap sizes not given here) for me?
OUT: 23

====

What MCV was measured for each of the following?
# TEST DETAILS: Hematology assays in cynomolgus monkeys (Example 45)
# Type: in vivo
# MEASUREMENT SETUP: day 29; escalating dose regimen
Quick reminder: number only, in fL, skip the unit.

IN: Can you look up the measured MCV of ISIS 417002: MOE gapmer, nucleobases 1275 to 1318 of SEQ ID NO: 1 (Table 8) (antisense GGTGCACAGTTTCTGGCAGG; MOE gapmer, wing and gap sizes not given here) for me?
OUT: 81

IN: Can you look up the measured MCV of ISIS 416838: MOE gapmer, nucleobases 1018 to 1042 of SEQ ID NO: 1 (Table 6) (antisense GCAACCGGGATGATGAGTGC; MOE gapmer, wing and gap sizes not given here) for me?
OUT: 81

IN: Can you look up the measured MCV of ISIS 416858: MOE gapmer, nucleobases 1275 to 1318 of SEQ ID NO: 1 (Table 8) (antisense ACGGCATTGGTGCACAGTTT; MOE gapmer, wing and gap sizes not given here) for me?
OUT: 78

IN: Can you look up the measured MCV of ISIS 416864: MOE gapmer, nucleobases 1275 to 1318 of SEQ ID NO: 1 (Table 8) (antisense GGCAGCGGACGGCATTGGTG; MOE gapmer, wing and gap sizes not given here) for me?
OUT: 80

IN: Can you look up the measured MCV of ISIS 416850: MOE gapmer, nucleobases 1275 to 1318 of SEQ ID NO: 1 (Table 8) (antisense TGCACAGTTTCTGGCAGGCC; MOE gapmer, wing and gap sizes not given here) for me?
OUT: 83

====

What percent inhibition of Factor 11 at 6.7 μM was measured for each of the following?
# Tested on: human Factor 11 mRNA
# TEST DETAILS: Dose-dependent inhibition of human Factor 11 in HepG2 cells, electroporation 0.7-20 uM (Example 4)
# Format: cell-based
# MEASUREMENT SETUP: 6.7 μM, relative to untreated control cells
Strand notation (5' to 3'): a small letter for the sugar, then the base; units joined by * are phosphorothioate-linked, units joined directly phosphodiester-linked; [ ] holds rarer units or linkages, { } end groups; capitals alone tell only the bases. e = 2'-O-(2-methoxyethyl) (MOE); [5mC] = 5-methylcytosine; d = 2'-deoxy (DNA)
Quick reminder: number only, in %, skip the unit.

IN: API: value(readout= percent inhibition of Factor 11 at 6.7 μM, system= human Factor 11 mRNA, query= 412206 (antisense e[5mC]*e[5mC]*eG*eT*eG*d[5mC]*dA*dT*d[5mC]*dT*dT*dT*d[5mC]*dT*dT*eG*eG*e[5mC]*eA*eT) [compound 412206] )
OUT: 81

IN: API: value(readout= percent inhibition of Factor 11 at 6.7 μM, system= human Factor 11 mRNA, query= 416923 (antisense eT*eG*e[5mC]*dA*d[5mC]*dA*dG*dT*dT*dT*d[5mC]*dT*dG*dG*d[5mC]*dA*dG*eG*e[5mC]*e[5mC]) [compound 416923] )
OUT: 60

IN: API: value(readout= percent inhibition of Factor 11 at 6.7 μM, system= human Factor 11 mRNA, query= 416922 (antisense eG*e[5mC]*eA*d[5mC]*dA*dG*dT*dT*dT*d[5mC]*dT*dG*dG*d[5mC]*dA*dG*dG*e[5mC]*e[5mC]*eT) [compound 416922] )
OUT: 77

IN: API: value(readout= percent inhibition of Factor 11 at 6.7 μM, system= human Factor 11 mRNA, query= 416985 (antisense eG*e[5mC]*dA*dA*d[5mC]*d[5mC]*dG*dG*dG*dA*dT*dG*dA*dT*dG*eA*eG*eT*eG*e[5mC]) [compound 416985] )
OUT: 45

IN: API: value(readout= percent inhibition of Factor 11 at 6.7 μM, system= human Factor 11 mRNA, query= 416878 (antisense eG*eG*eT*d[5mC]*d[5mC]*dA*d[5mC]*dA*dT*dA*dA*dA*dT*dG*dT*d[5mC]*dT*eT*eT*eG) [compound 416878] )
OUT: 75

IN: API: value(readout= percent inhibition of Factor 11 at 6.7 μM, system= human Factor 11 mRNA, query= 417002 (antisense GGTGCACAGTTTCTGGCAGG; 2-13-5 gapmer chemistry, further chemistry not given here) [compound 417002] )
OUT: 82

IN: API: value(readout= percent inhibition of Factor 11 at 6.7 μM, system= human Factor 11 mRNA, query= 417003 (antisense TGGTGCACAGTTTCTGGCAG; 2-13-5 gapmer chemistry, further chemistry not given here) [compound 417003] )
OUT: 75

IN: API: value(readout= percent inhibition of Factor 11 at 6.7 μM, system= human Factor 11 mRNA, query= 416856 (antisense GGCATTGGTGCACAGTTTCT; 5-10-5 gapmer, further chemistry not given here) [compound 416856] )
OUT: 47

IN: API: value(readout= percent inhibition of Factor 11 at 6.7 μM, system= human Factor 11 mRNA, query= 416827 (antisense eT*eA*eT*eG*e[5mC]*d[5mC]*d[5mC]*dT*dT*d[5mC]*dA*dT*dG*dT*d[5mC]*eT*eA*eG*eG*eT) [compound 416827] )
OUT: 87

IN: API: value(readout= percent inhibition of Factor 11 at 6.7 μM, system= human Factor 11 mRNA, query= 416925 (antisense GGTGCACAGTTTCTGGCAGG; 3-14-3 gapmer chemistry, further chemistry not given here) [compound 416925] )
OUT: 76

IN: API: value(readout= percent inhibition of Factor 11 at 6.7 μM, system= human Factor 11 mRNA, query= 416969 (antisense eG*e[5mC]*d[5mC]*d[5mC]*dT*dT*d[5mC]*dA*dT*dG*dT*d[5mC]*dT*dA*dG*eG*eT*e[5mC]*e[5mC]*eA) [compound 416969] )
OUT: 86
